Value source: PubChem BioAssay AID720688

# subject.of.test: Cell division control protein 42 homolog (Homo sapiens) (UniProt P60953)
# Sequence (P60953 whole entry, looked up): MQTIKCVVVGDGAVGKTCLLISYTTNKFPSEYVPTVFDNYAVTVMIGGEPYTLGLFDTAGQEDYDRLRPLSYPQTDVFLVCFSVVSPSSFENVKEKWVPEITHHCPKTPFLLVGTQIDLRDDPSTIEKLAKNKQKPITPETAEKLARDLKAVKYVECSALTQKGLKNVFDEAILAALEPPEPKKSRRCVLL
# protocol: inhibition of fluorescent GTP binding to wildtype Cdc42 – biochemical, protein source comparison, flow cytometry beads, Bodipy-FL-GTP, mechanism study for Ras-family GTPase inhibitor project, late-stage follow-up (AID 720688)
# condition.description: GST-Cdc42 beads, protein source 2
value.kind: pEC50
pEC50 (log units): -log10 of the concentration in mol/L.

I'd like to know its pEC50. The compound in question is "CC1(C)Cc2c(sc(NC(=S)NC(=O)c3cccc(N=[N+]=[N-])c3)c2C(=O)O)CO1" 4.73
